- measurement setup: in ethyl acetate, 318.15 K
observed property: solubility (mole fraction)

I'd like to know its solubility (mole fraction). The compound in question is CC(=O)N[C@@H](CCC(N)=O)C(=O)O
0.000402

====

- measurement setup: in methanol, 318.15 K
observed property: solubility (mole fraction)
Give the figure by itself; no unit, no explanation.

I'd like to know its solubility (mole fraction). The molecule in question is CC(=O)N[C@@H](CCC(N)=O)C(=O)O
0.00281

====

- measurement setup: in n-propanol, 313.15 K
observed property: solubility (mole fraction)

I'd like to know its solubility (mole fraction). The compound in question is CC(=O)N[C@@H](CCC(N)=O)C(=O)O
0.000564

====

- measurement setup: in acetone, 288.15 K
observed property: solubility (mole fraction)
Give the figure by itself; no unit, no explanation.

I'd like to know its solubility (mole fraction). The compound in question is CC(=O)N[C@@H](CCC(N)=O)C(=O)O
0.000192

====

- measurement setup: in n-propanol, 283.15 K
observed property: solubility (mole fraction)
Give the figure by itself; no unit, no explanation.

I'd like to know its solubility (mole fraction). The compound in question is CC(=O)N[C@@H](CCC(N)=O)C(=O)O
0.000371

====

- measurement setup: in sec-butanol, 318.15 K
observed property: solubility (mole fraction)
Give the figure by itself; no unit, no explanation.

I'd like to know its solubility (mole fraction). The compound in question is CC(=O)N[C@@H](CCC(N)=O)C(=O)O
0.000705

====

- measurement setup: in methanol, 308.15 K
observed property: solubility (mole fraction)
Give the figure by itself; no unit, no explanation.

I'd like to know its solubility (mole fraction). The compound in question is CC(=O)N[C@@H](CCC(N)=O)C(=O)O
0.00206

====

- measurement setup: in isobutanol, 293.15 K
observed property: solubility (mole fraction)
Give the figure by itself; no unit, no explanation.

I'd like to know its solubility (mole fraction). The compound in question is CC(=O)N[C@@H](CCC(N)=O)C(=O)O
0.000354

====

- measurement setup: in water, 288.15 K
observed property: solubility (mole fraction)
Give the figure by itself; no unit, no explanation.

I'd like to know its solubility (mole fraction). The compound in question is CC(=O)N[C@@H](CCC(N)=O)C(=O)O
0.00233

====

- measurement setup: in isobutanol, 323.15 K
observed property: solubility (mole fraction)
Give the figure by itself; no unit, no explanation.

I'd like to know its solubility (mole fraction). The molecule in question is CC(=O)N[C@@H](CCC(N)=O)C(=O)O
0.000707

====

- measurement setup: in n-butanol, 308.15 K
observed property: solubility (mole fraction)
Give the figure by itself; no unit, no explanation.

I'd like to know its solubility (mole fraction). The compound in question is CC(=O)N[C@@H](CCC(N)=O)C(=O)O
0.000314

====

- measurement setup: in isobutanol, 318.15 K
observed property: solubility (mole fraction)

I'd like to know its solubility (mole fraction). The compound in question is CC(=O)N[C@@H](CCC(N)=O)C(=O)O
0.000635

====

- measurement setup: in ethanol, 303.15 K
observed property: solubility (mole fraction)
Give the figure by itself; no unit, no explanation.

I'd like to know its solubility (mole fraction). The molecule in question is CC(=O)N[C@@H](CCC(N)=O)C(=O)O
0.000618

====

- measurement setup: in water, 283.15 K
observed property: solubility (mole fraction)
Give the figure by itself; no unit, no explanation.

I'd like to know its solubility (mole fraction). The compound in question is CC(=O)N[C@@H](CCC(N)=O)C(=O)O
0.00214

====

- measurement setup: in ethanol, 308.15 K
observed property: solubility (mole fraction)
Give the figure by itself; no unit, no explanation.

I'd like to know its solubility (mole fraction). The compound in question is CC(=O)N[C@@H](CCC(N)=O)C(=O)O
0.000685

====

- measurement setup: in methanol, 323.15 K
observed property: solubility (mole fraction)

I'd like to know its solubility (mole fraction). The compound in question is CC(=O)N[C@@H](CCC(N)=O)C(=O)O
0.00318

====

- measurement setup: in n-propanol, 303.15 K
observed property: solubility (mole fraction)
Give the figure by itself; no unit, no explanation.

I'd like to know its solubility (mole fraction). The compound in question is CC(=O)N[C@@H](CCC(N)=O)C(=O)O
0.000498

====

- measurement setup: in ethyl acetate, 323.15 K
observed property: solubility (mole fraction)
Give the figure by itself; no unit, no explanation.

I'd like to know its solubility (mole fraction). The compound in question is CC(=O)N[C@@H](CCC(N)=O)C(=O)O
0.000431

====

- measurement setup: in sec-butanol, 323.15 K
observed property: solubility (mole fraction)
Give the figure by itself; no unit, no explanation.

I'd like to know its solubility (mole fraction). The compound in question is CC(=O)N[C@@H](CCC(N)=O)C(=O)O
0.000757

====

- measurement setup: in n-propanol, 323.15 K
observed property: solubility (mole fraction)
Give the figure by itself; no unit, no explanation.

I'd like to know its solubility (mole fraction). The compound in question is CC(=O)N[C@@H](CCC(N)=O)C(=O)O
0.000637

====

- measurement setup: in isobutanol, 298.15 K
observed property: solubility (mole fraction)

I'd like to know its solubility (mole fraction). The compound in question is CC(=O)N[C@@H](CCC(N)=O)C(=O)O
0.000415

====

- measurement setup: in 2-butanone, 298.15 K
observed property: solubility (mole fraction)
Give the figure by itself; no unit, no explanation.

I'd like to know its solubility (mole fraction). The molecule in question is CC(=O)N[C@@H](CCC(N)=O)C(=O)O
0.000451

====

- measurement setup: in isobutanol, 283.15 K
observed property: solubility (mole fraction)
Give the figure by itself; no unit, no explanation.

I'd like to know its solubility (mole fraction). The molecule in question is CC(=O)N[C@@H](CCC(N)=O)C(=O)O
0.000288

====

- measurement setup: in methanol, 298.15 K
observed property: solubility (mole fraction)
Give the figure by itself; no unit, no explanation.

I'd like to know its solubility (mole fraction). The compound in question is CC(=O)N[C@@H](CCC(N)=O)C(=O)O
0.00149

====

- measurement setup: in methanol, 288.15 K
observed property: solubility (mole fraction)

I'd like to know its solubility (mole fraction). The compound in question is CC(=O)N[C@@H](CCC(N)=O)C(=O)O
0.00112

====

- measurement setup: in methanol, 293.15 K
observed property: solubility (mole fraction)
Give the figure by itself; no unit, no explanation.

I'd like to know its solubility (mole fraction). The molecule in question is CC(=O)N[C@@H](CCC(N)=O)C(=O)O
0.00132

====

- measurement setup: in n-butanol, 293.15 K
observed property: solubility (mole fraction)
Give the figure by itself; no unit, no explanation.

I'd like to know its solubility (mole fraction). The compound in question is CC(=O)N[C@@H](CCC(N)=O)C(=O)O
0.000144

From: BigSolDB 2.1
